// provenance: paper PMC6271077

test system: M. tuberculosis isoniazid-sensitive strain (spec. 192); experiment: Tuberculostatic activity, test-tube dilution; format: cell-based; settings: Mycobacterium tuberculosis, read-out: MIC M. tuberculosis Isoniazid-Sensitive Strain
measurementKind: MIC (µg/mL)
Record the value in µg/mL, omitting the unit from your answer.

Solved entries (count: 3):
molecule: CC[C@H](C(=O)NCc1ccc(Br)cc1)C1CC[C@H](C)C([C@@H](C)[C@H](O)[C@H](C)C(=O)[C@H](CC)C2O[C@]3(C=C[C@@H](O)C4(CC[C@@](C)(C5CC[C@](O)(CC)[C@H](C)O5)O4)O3)[C@H](C)C[C@@H]2C)O1 (some centres unmarked)
MIC [µg/mL]: 50
--
molecule: CCC(C(=O)NCc1ccccc1F)C1CCC(C)C(C(C)C(O)C(C)C(=O)C(CC)C2OC3(C=CC(O)C4(CCC(C)(C5CCC(O)(CC)C(C)O5)O4)O3)C(C)CC2C)O1 (centres unmarked)
MIC [µg/mL]: 50
--
molecule: CC[C@H](C(=O)NCc1cccc([N+](=O)[O-])c1)C1CC[C@H](C)C([C@@H](C)[C@H](O)[C@H](C)C(=O)[C@H](CC)C2O[C@]3(C=C[C@@H](O)C4(CC[C@@](C)(C5CC[C@](O)(CC)[C@H](C)O5)O4)O3)[C@H](C)C[C@@H]2C)O1 (some centres unmarked)
MIC [µg/mL]: 100

Now turn to the next molecule.
Data request: Provide MIC, system M. tuberculosis isoniazid-sensitive strain (spec. 192), entry CC[C@H](C(=O)NCc1ccc(Cl)cc1)C1CC[C@H](C)C([C@@H](C)[C@H](O)[C@H](C)C(=O)[C@H](CC)C2O[C@]3(C=C[C@@H](O)C4(CC[C@@](C)(C5CC[C@](O)(CC)[C@H](C)O5)O4)O3)[C@H](C)C[C@@H]2C)O1 (some centres unmarked) [Cl-p, p-chlorobenzyl amide of salinomycin]
Data returned: 100

###

tested on: HL-60/vinc; assay: Antiproliferative MTT assay, HL-60/vinc; format: cell-based, human; conditions: SI = IC50 BALB/3T3 / IC50 HL-60/vinc
# Lookup of reported SI HL-60/vinc keyed by entry
When you answer, write just the number.

Solved entries (count: 2):
molecule: N.N.[Cl][Pt][Cl] [cisplatin, reference compound]
measurementTarget: HL-60/vinc
endpointResult: 0.77
--
molecule: CC[C@H](C(=O)NCc1ccccc1Cl)C1CC[C@H](C)C([C@@H](C)[C@H](O)[C@H](C)C(=O)[C@H](CC)C2O[C@]3(C=C[C@@H](O)C4(CC[C@@](C)(C5CC[C@](O)(CC)[C@H](C)O5)O4)O3)[C@H](C)C[C@@H]2C)O1 (stereo partly drawn) [Cl-o]
measurementTarget: HL-60/vinc
endpointResult: 1.50

Now turn to the next molecule.
Data request: Quick one: give measured SI HL-60/vinc for CCC(C(=O)NCc1ccccc1F)C1CCC(C)C(C(C)C(O)C(C)C(=O)C(CC)C2OC3(C=CC(O)C4(CCC(C)(C5CCC(O)(CC)C(C)O5)O4)O3)C(C)CC2C)O1 (stereo not drawn) [F-o]
Data returned: 1.34

###

system: S. aureus ATCC 6538; assay: Disc-diffusion (GIZ); assay type: cell-based; settings: 18 h, 35 °C, un: unmeasurable
measurementKind: GIZ (mm)
Record the value in mm, omitting the unit from your answer.

Solved entries (count: 2):
molecule: CC[C@H](C(=O)NCc1ccc(F)cc1)C1CC[C@H](C)C([C@@H](C)[C@H](O)[C@H](C)C(=O)[C@H](CC)C2O[C@]3(C=C[C@@H](O)C4(CC[C@@](C)(C5CC[C@](O)(CC)[C@H](C)O5)O4)O3)[C@H](C)C[C@@H]2C)O1 (stereo partly shown) [F-p]
resultUnit: mm
GIZ: 19

molecule: O=C(O)c1cn(C2CC2)c2cc(N3CCNCC3)c(F)cc2c1=O [ciprofloxacin, reference compound]
resultUnit: mm
GIZ: 28

Data request: Quick one: give measured GIZ for CC[C@@H](C(=O)[C@@H](C)[C@@H](O)[C@H](C)[C@@H]1O[C@@H]([C@@H](CC)C(=O)O)CC[C@@H]1C)[C@H]1O[C@]2(C=C[C@@H](O)[C@]3(CC[C@@](C)([C@H]4CC[C@](O)(CC)[C@H](C)O4)O3)O2)[C@H](C)C[C@@H]1C [SAL, Salinomycin]
Data returned: 34

###

tested on: HL-60/vinc; assay: Antiproliferative MTT assay, HL-60/vinc; assay type: cell-based, human; conditions: SI = IC50 BALB/3T3 / IC50 HL-60/vinc
measurementKind: SI HL-60/vinc
When you answer, write just the number.

compound: COc1cccc2c1C(=O)c1c(O)c3c(c(O)c1C2=O)C[C@@](O)(C(=O)CO)C[C@@H]3O[C@H]1C[C@H](N)[C@H](O)[C@H](C)O1 [doxorubicin, reference compound]
SI HL-60/vinc: 0.20

Now turn to the next compound.
Data request: Quick one: give measured SI HL-60/vinc for CC[C@H](C(=O)NCc1cccc([N+](=O)[O-])c1)C1CC[C@H](C)C([C@@H](C)[C@H](O)[C@H](C)C(=O)[C@H](CC)C2O[C@]3(C=C[C@@H](O)C4(CC[C@@](C)(C5CC[C@](O)(CC)[C@H](C)O5)O4)O3)[C@H](C)C[C@@H]2C)O1 (some centres unmarked)
Data returned: 1.01
